B1: Arabidopsis thaliana cryptochrome 2 (CRY2, UniProt Q96524), residues 1-535 fused after the Gal4 DNA-binding domain (Gal4BD-CRY2(535)); mutagenized window 321-412, Q96524 (parent)
chain: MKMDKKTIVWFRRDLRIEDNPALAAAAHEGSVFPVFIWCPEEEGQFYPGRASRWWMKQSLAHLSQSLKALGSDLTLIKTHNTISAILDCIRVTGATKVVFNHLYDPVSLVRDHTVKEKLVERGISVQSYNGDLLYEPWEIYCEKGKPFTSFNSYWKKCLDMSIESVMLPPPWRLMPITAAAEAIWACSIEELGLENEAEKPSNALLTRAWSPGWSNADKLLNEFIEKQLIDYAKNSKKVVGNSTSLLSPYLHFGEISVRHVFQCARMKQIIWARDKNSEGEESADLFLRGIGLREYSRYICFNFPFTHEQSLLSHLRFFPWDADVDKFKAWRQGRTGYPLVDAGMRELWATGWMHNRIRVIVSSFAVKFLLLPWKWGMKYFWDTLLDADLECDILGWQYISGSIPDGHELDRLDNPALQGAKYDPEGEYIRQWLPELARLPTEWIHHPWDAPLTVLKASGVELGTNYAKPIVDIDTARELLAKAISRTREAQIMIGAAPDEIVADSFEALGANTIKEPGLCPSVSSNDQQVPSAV

Variants of: B1
METHOD_SUMMARY: yeast two-hybrid growth selection (MaV203; Gal4BD-CRY2(1-535) library x Gal4AD-CIB1; URA3 reporter on SC -Trp/-Leu/-Ura) in the dark, deep sequencing before and after selection, Enrich2 scoring; three independent screens (one at 48 h, two …)
CONDITION_DETAILS: with CIB1 (CRYPTOCHROME-INTERACTING BASIC-HELIX-LOOP-HELIX 1), dark (no blue light), screens 1, 3 and 4, Svar > 0 = enriched under dark selection for CRY2-CIB1 two-hybrid growth (URA3 reporter), < 0 = depleted, relative to wild type (whose scores are 0). 'The Enrich2 software calculates, parent: 0, not an affinity, scale: Enrich2 score, numbering: uniprot, sequence starts at 1
For each of the variants below, state its enrichment.

Lookup: Using the record for T351N , report its enrichment.
Found: -0.315

Lookup: Which enrichment value belongs to I404V ?
Found: -0.182

Lookup: Find the recorded enrichment belonging to W321L and report it.
Found: -1.18

Lookup: Entry under review: G337R . Reported enrichment?
Found: -0.665

Lookup: Quick one: enrichment of G402V ?
Found: -0.0472

Lookup: Name the recorded enrichment for K327Q .
Found: 0.397

Lookup: Suppose we examine the variant I404Y ; what enrichment value has been reported?
Found: 1.4

Lookup: For the variant G402E , what enrichment is on record?
Found: 0.772

Lookup: Value lookup for enrichment; key = K368R
Found: 0.246

Lookup: Can you share its enrichment? I mean this variant: E391V
Found: -0.645

Lookup: Would you kindly share the measured enrichment for I358M ?
Found: 0.739

Lookup: Value lookup for enrichment; key = V362G
Found: -1.16

Lookup: Give its enrichment value. Item: K327N
Found: -0.0863

Lookup: Requested read-out: enrichment. Entry: D406G
Found: -0.172

Lookup: Give its enrichment value. Item: W321G
Found: -0.157

Lookup: So what does the record say about enrichment for N356I ?
Found: -0.473

Lookup: Give its enrichment value. Item: F381L
Found: 1.1

Lookup: Consider the variant shown here: D342E What is its recorded enrichment?
Found: -1.69

Lookup: Quick check: enrichment of M345I ?
Found: -0.745

Lookup: What enrichment value was documented for this variant, V325D ?
Found: -1.89

Lookup: Look up enrichment for this variant: Y399C
Found: 1.43

Lookup: What enrichment value was documented for this variant, K327E ?
Found: -1.63

Lookup: Which enrichment is reported for this variant? W374C
Found: 1.8

Lookup: Return reported enrichment; argument: H355R
Found: 0.547

Lookup: Which enrichment is listed for V325G ?
Found: 0.408

Lookup: Given the entry I400M , report its measured enrichment.
Found: 0.868

Lookup: Return reported enrichment; argument: L370H
Found: -0.964

Lookup: Look up enrichment: K329T
Found: 0.41

Lookup: What measured enrichment goes with L390M ?
Found: -0.808

Lookup: Which value of enrichment has been reported for A323T in the records?
Found: -0.65

Lookup: Tell me the measured enrichment of L348R , please.
Found: -1.14

Lookup: State the recorded enrichment for this entry: I400Y
Found: 1.86

Lookup: May I ask what enrichment has been recorded for W353L ?
Found: -0.339

Lookup: Can you look up the measured enrichment of S403N for me?
Found: 0.435

Lookup: Recorded enrichment of C392G , please.
Found: -0.321

Lookup: Fill in: enrichment of A330G is ___
Found: -2.23

Lookup: I would be grateful if you could share the reported enrichment for L340S .
Found: -1.47

Lookup: Could you share which enrichment value was measured for A388V ?
Found: -0.153

Lookup: enrichment lookup needed for D342V , thanks.
Found: -1.71

Lookup: Find the recorded enrichment belonging to W353G and report it.
Found: -0.0561

Lookup: If you can, please state the reported enrichment value of K379N .
Found: -0.188

Lookup: Looking for the measured enrichment of D342Y , can you help?
Found: -1.02

Lookup: Sample H408Y — what was its enrichment?
Found: -0.432

Lookup: Would you kindly share the measured enrichment for H355Q ?
Found: -0.322

Lookup: What enrichment value was documented for this variant, K379L ?
Found: 0.965

Lookup: Give its enrichment value. Item: V367L
Found: 1.55

Lookup: Which value of enrichment has been reported for I394V in the records?
Found: 0.326

Lookup: Would you kindly share the measured enrichment for S401A ?
Found: -0.239

Lookup: Give its enrichment value. Item: R332K
Found: -1.23

Lookup: Dear colleague, I am looking for the recorded enrichment of the following variant: E409V
Found: 0.507

Lookup: Field request: enrichment | item: W349S
Found: 0.756

Lookup: enrichment for K379E ?
Found: -0.743

Lookup: Which enrichment reading was recorded for the variant E347K ?
Found: -1.6

Lookup: I am curious: what enrichment value has been reported for V341A ?
Found: -1.68

Lookup: Any idea what its enrichment is? The variant is D393A
Found: 1.64

Lookup: Given A350G , state its recorded enrichment.
Found: 0.232

Lookup: Quick one: enrichment of I394F ?
Found: 2.63

Lookup: Return reported enrichment; argument: S401P
Found: -0.107

Lookup: Recorded enrichment for D389E , please?
Found: -0.54

Lookup: I have this variant here, I404A , and I need its recorded enrichment.
Found: 1.16

Lookup: Can you share its enrichment? I mean this variant: G402K
Found: 2.35

Lookup: Which enrichment reading was recorded for the variant Y338N ?
Found: -1.68

Lookup: Fill in the blank: the reported enrichment of D324V is ____.
Found: 2.44

Lookup: Need enrichment, item D406H
Found: -0.803

Lookup: Query: enrichment; subject: W376S
Found: -1.68

Lookup: Which enrichment value is on record for D393V ?
Found: 0.508

Lookup: # query: enrichment of entry E409D
Found: 0.454

Lookup: What does the data say about its enrichment? Entry: D322N
Found: 0.239

Lookup: Could you tell me which enrichment is on file for V341L ?
Found: -1.04

Lookup: Fill in: enrichment of Q398W is ___
Found: 1.99

Lookup: # input variant: L372I ; wanted: its enrichment
Found: -0.44
